Each entry below carries its recorded INHIBITION.
test system: Plasmodium berghei; assay: Screen against P. berghei liver stage (PbLuc), transformed with Luciferase, at 10uM; format: functional, HepG2; conditions: tested at 10 uM
Hit rate of the full screen: of about 69,000 compounds, about 8,600 (12%) showed an effect of 50% or more. The entries come from a sample that favours strong results as a whole.
Dear colleague, please return just the value in %, with no unit written.

Example compounds with recorded INHIBITION:
# compound, metricName, unitAbbreviation, endpointResult
rows = [
    ("CC(C)CC(CO)NC(=O)NCc1csc(N(C)C)n1 (stereo not given)", "INHIBITION", "%", -5.1),
    ("CC(CO)NC(=O)Nc1ccc(S(C)(=O)=O)nc1 (stereo not given)", "INHIBITION", "%", -38.695),
]

Now look at this one.
(Q) For "CCC1=NN2C(=N)C(=Cc3cccn3-c3ccc(Cl)cc3)C(=O)N=C2S1" , what is its reported INHIBITION?
(A) 76.7

====

Each entry below carries its recorded INHIBITION.
test system: Plasmodium berghei; test: Screen against P. berghei liver stage (PbLuc), transformed with Luciferase, at 10uM; assay type: functional, HepG2; conditions: tested at 10 uM
The whole screen tested about 69,000 compounds, of which about 8,600 (12%) showed an effect of 50% or more. The entries come from a sample that favours strong results as a whole.
Remember to put the unit after the number in your answer.

# molecule, INHIBITION
data = [
    ("Cc1nc(N2CCCOC(Cn3cccn3)C2)c2sccc2n1 (stereo not drawn)", "65.7%"),
    ("CCC(O)CN1CCN(C(=O)c2ccn(C)c(=O)c2)CC1 (stereo not drawn)", "13.3%"),
    ("COc1ccc(C(=O)N2CC(=O)N(C3CCC3)CC(O)C2)c(OC)c1 (stereo not drawn)", "13.9%"),
    ("c1ccc2c(N3CCOC(Cn4cccn4)C3)ncnc2c1 (stereo not drawn)", "4.48%"),
    ("Cc1cnn(CC2CN(c3ncnc4c3CCC4)CCO2)c1 (stereo not drawn)", "63%"),
]

(Q) Param readout= INHIBITION; system= Plasmodium berghei; entry= "Cc1cc(C)n2c(CNCCNc3ccccc3)cnc2n1" ; returns value.
(A) -35.2%

(Q) Param readout= INHIBITION; system= Plasmodium berghei; entry= "Cc1nnc(C2CCN(C(=O)c3ccc4nccnc4c3)CC2)s1" ; returns value.
(A) 51.3%

(Q) Param readout= INHIBITION; system= Plasmodium berghei; entry= "Cc1cnc(C(=O)N2C[C@H]3CN(Cc4cccc(F)c4)C(=O)[C@H]3C2)cn1" ; returns value.
(A) -9.71%

(Q) Param readout= INHIBITION; system= Plasmodium berghei; entry= Cn1cc(C(C)(O)CNc2ccc(Cl)c(C#N)n2)cn1 (stereo not drawn) ; returns value.
(A) -10.7%

(Q) Param readout= INHIBITION; system= Plasmodium berghei; entry= "CC(C)c1cc(COCCC(=O)O)no1" ; returns value.
(A) 44.1%

(Q) Param readout= INHIBITION; system= Plasmodium berghei; entry= Cc1cnn(CC2CN(c3ncnc4[nH]ccc34)CCO2)c1 (stereo not drawn) ; returns value.
(A) 19.4%

(Q) Param readout= INHIBITION; system= Plasmodium berghei; entry= CCCNC(=O)C1(CC2CC(c3ccccc3OC)=NO2)CCOCC1 (stereo not drawn) ; returns value.
(A) 29.2%

(Q) Param readout= INHIBITION; system= Plasmodium berghei; entry= "COc1ccc(N2CCN(C(=O)Cn3nc(C)c(Cl)c3C)CC2)cc1" ; returns value.
(A) 7.44%

(Q) Param readout= INHIBITION; system= Plasmodium berghei; entry= "Cc1oc(C)c(C(=O)N2CCN(Cc3cscn3)CC2)c1C" ; returns value.
(A) -63.3%

(Q) Param readout= INHIBITION; system= Plasmodium berghei; entry= Cc1cnn(CC2CN(c3ncnc4ccccc34)CCO2)c1 (stereo not drawn) ; returns value.
(A) 64.4%

(Q) Param readout= INHIBITION; system= Plasmodium berghei; entry= c1cnn(CC2CN(c3ncnc4c3CCC4)CCO2)c1 (stereo not drawn) ; returns value.
(A) -7.17%

(Q) Param readout= INHIBITION; system= Plasmodium berghei; entry= "O=C(c1ccnn1COc1ccc(Cl)cc1)N1CCSCC1" ; returns value.
(A) 33.4%

(Q) Param readout= INHIBITION; system= Plasmodium berghei; entry= "Cc1noc(C)c1Cc1nc(N(C)C)no1" ; returns value.
(A) 19.9%

====

test system: Plasmodium berghei; assay: Screen against P. berghei liver stage (PbLuc), transformed with Luciferase, at 10uM; type: functional, HepG2; conditions: tested at 10 uM
Hit rate of the full screen: of about 69,000 compounds, about 8,600 (12%) showed an effect of 50% or more. The sample as a whole holds a higher share of strong results than the screen did.
Please mark YES if the recorded INHIBITION is equal to or greater than 30%, and NO if it falls below.

A selection of reference data follows.
# molecule, cat
measured = [
    ("CN1C(=O)CCC12CCC(NC(=O)NCc1cccnc1)CC2 (stereo not drawn)", "NO"),
    ("Cc1cn(Cc2ccc(F)cc2)nc1N", "NO"),
    ("O=C(C1CC1)N1C[C@@H](F)[C@@H](OCc2nc3ccccc3o2)C1", "NO"),
    ("CC(C)N(C)Cc1cnc2n1CCN(C(=O)Cc1cccs1)C2C (stereo not drawn)", "NO"),
    ("Cc1nc(C2CCCN2Cc2nccn2CC(F)(F)F)no1 (stereo not drawn)", "NO"),
]

(Q) Hi team, for "NC(=O)CN1CCCN(C(=O)Cc2ccc(Br)cc2)CC1" , is the recorded INHIBITION at or above 30%?
(A) YES

(Q) Hi team, for "F[C@@H]1CN(CC2CC2)C[C@@H]1OCc1nc2ccccc2o1" , is the recorded INHIBITION at or above 30%?
(A) NO

====

test system: Plasmodium berghei; test: Screen against P. berghei liver stage (PbLuc), transformed with Luciferase, at 10uM; assay type: functional, HepG2; details: tested at 10 uM
Out of some 69,000 compounds screened, about 8,600 (12%) showed an effect of 50% or more. What follows is part of a selection rich in strong results, with near analogues and random picks from the rest.
Please mark MET if the recorded INHIBITION is equal to or greater than 40%, and NOT MET if it falls below.

A selection of reference data follows.
# molecule, experimentalSystem, cat
records = [
    ("CCn1nc(C)c(CN(Cc2ccccn2)Cc2ccccc2Cl)c1C", "Plasmodium berghei", "MET"),
    ("O=S(=O)(Nc1cnc(N2CCCC2)nc1)c1ccc(C(F)(F)F)cc1", "Plasmodium berghei", "NOT MET"),
    ("CC(Cn1ccnc1)NC(=O)N1CCN(Cc2ccsc2)CC1 (configuration not stated)", "Plasmodium berghei", "NOT MET"),
    ("O=S(=O)(c1cccs1)N1CCCCC1c1ccn[nH]1 (configuration not stated)", "Plasmodium berghei", "NOT MET"),
]

Next:
(Q) Hi team, for O=C1N(Cc2ccc(F)c(F)c2)CCCC12CCN(C1CCSCC1)C2 (configuration not stated) , is the recorded INHIBITION at or above 40%?
(A) MET

====

tested on: Plasmodium berghei; test: Screen against P. berghei liver stage (PbLuc), transformed with Luciferase, at 10uM; type: functional, HepG2; details: tested at 10 uM
Out of some 69,000 compounds screened, about 8,600 (12%) showed an effect of 50% or more. This is one part of a sample in which strong results are shown more often than they occur.
metricName: INHIBITION (%)
Dear colleague, please return just the value in %, with no unit written.

# smilesCode, endpointResult
records = [
    ("COc1ccc(-c2c(C)nn3c(=N)c(C#N)n[nH]c23)cc1", 3.19),
    ("CC(C)N1CCO[C@H]2CN(C(=O)c3ccsc3)C[C@H]21", -5.05),
    ("CN(C)c1nc(N2CCCC2)nc2c1CCN(Cc1nccn1C)CC2", 50.3),
    ("Cc1nc(N2CCCC2)nc2c1CCN(Cc1nccn1C)CC2", 46.6),
]

(Q) For "COCCn1ccc(NC(=O)CNC(=O)CC(C)(C)C)n1" , what is its reported INHIBITION?
(A) 34.9

====

tested on: Plasmodium berghei; experiment: Screen against P. berghei liver stage (PbLuc), transformed with Luciferase, at 10uM; type: functional, HepG2; conditions: tested at 10 uM
Screen size: about 69,000 compounds; about 8,600 (12%) showed an effect of 50% or more. This excerpt belongs to a sample that is enriched for strong results.
The threshold is 30%. Values of INHIBITION beneath it are tagged Fulfilled; values meeting or exceeding it are tagged Not fulfilled.

A selection of reference data follows.
# compound, cat
measured = [
    ("COc1cccc2c(=O)n(Cc3ccnc(C)c3)cnc12", "Fulfilled"),
    ("Cn1cc(S(=O)(=O)NCCc2ccsc2)cn1", "Not fulfilled"),
    ("CN(Cc1cnn(C)c1)C(=O)Cn1c(CS(C)(=O)=O)nc2ccccc21", "Fulfilled"),
    ("O=C(c1ccc2sccc2c1)N1CCC(C(=O)O)(n2cccn2)CC1", "Fulfilled"),
    ("CC(NC(=O)C1CC1)C(=O)N(C)Cc1ccsc1 (configuration not stated)", "Fulfilled"),
]

(Q) Criterion: INHIBITION strictly below 30%. Is it met by "CCn1cnnc1CNC(=O)N1CCN(c2ccc(OC)cc2)CC1" ?
(A) Not fulfilled

(Q) Criterion: INHIBITION strictly below 30%. Is it met by "Cc1nc(CC(=O)N2CCCN(c3ccc(C#N)cc3)CC2)cs1" ?
(A) Fulfilled

(Q) Criterion: INHIBITION strictly below 30%. Is it met by CN(C)CCN1CCC2(CCCN(Cc3cccn3C)C2)C1=O (configuration not stated) ?
(A) Not fulfilled

(Q) Criterion: INHIBITION strictly below 30%. Is it met by CCC1CN(C)c2ccccc2CN1C(=O)Nc1cccc(F)c1 (configuration not stated) ?
(A) Not fulfilled

(Q) Criterion: INHIBITION strictly below 30%. Is it met by CN(CC(=O)NC1(C)CCS(=O)(=O)C1)Cc1ccc(F)c(F)c1 (configuration not stated) ?
(A) Fulfilled

(Q) Criterion: INHIBITION strictly below 30%. Is it met by CN(C)S(=O)(=O)NC(=O)CC(c1ccccc1)C(F)(F)F (configuration not stated) ?
(A) Not fulfilled

(Q) Criterion: INHIBITION strictly below 30%. Is it met by "Cc1c(C(=O)O)cnn1-c1ccc(-c2nc(C(C)C)no2)cn1" ?
(A) Fulfilled

(Q) Criterion: INHIBITION strictly below 30%. Is it met by CCC1CN(C)c2ccccc2CN1C(=O)Nc1ccccc1OC (configuration not stated) ?
(A) Not fulfilled

(Q) Criterion: INHIBITION strictly below 30%. Is it met by "CCCC(=O)N(C)Cc1nc(N2CCCC2)ncc1-c1ccncc1" ?
(A) Fulfilled
